Could you please report measured yeast fitness for the items listed next?
B1: tRNA (parent)
chain: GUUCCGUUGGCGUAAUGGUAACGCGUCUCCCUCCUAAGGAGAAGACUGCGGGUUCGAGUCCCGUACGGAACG

Variants of: B1
experiment: yeast fitness relative to wild type (ratio to wild type); higher = fitter; tRNA-Arg(CCU), competitive growth, 37 C, YPD
This sample holds only a part of the variants without activity.

Please fill in: yeast fitness reported for C4G U8A A14C G48A G63C = ≤ 0.5

Please fill in: yeast fitness reported for C4U C24U C27G = ≤ 0.5

Please fill in: yeast fitness reported for A14G U16G C24G U26C U47G G50C C66A = ≤ 0.5

Please fill in: yeast fitness reported for U28C G38C G51C = ≤ 0.5

Please fill in: yeast fitness reported for U2G A20G C46A = 0.618

Please fill in: yeast fitness reported for G9A U13A A65G C66U = ≤ 0.5

Please fill in: yeast fitness reported for C22G A42C = 0.635

Please fill in: yeast fitness reported for C31G A40G = 0.719

Please fill in: yeast fitness reported for U2G A40C A65G C66G = ≤ 0.5

Please fill in: yeast fitness reported for C4A G41A A45U G58U C60A = ≤ 0.5

Please fill in: yeast fitness reported for G9A C29A G50A A69C = ≤ 0.5

Please fill in: yeast fitness reported for A43G A70G = 0.977

Please fill in: yeast fitness reported for C27G C31A A70U = ≤ 0.5
